Data provenance: PubChem BioAssay AID2216

Task for the reader: assign each of the following molecules its reported inhibition.
System: Ran GTPase (GTP-bound) - importin-beta complex
assay-overview: disruptors of Ran-importin-beta complex formation – biochemical, FRET, CFP-Ran, YFP-importin-beta, homogeneous, primary screen (AID 2216);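 note: 0% = DMSO wells and 100% = Ran loaded with GDP instead of GTP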
test-context: cell-free CFP-Ran/YFP-importin-beta FRET ratio; stronger effect = higher value; concentration not given here
Screen size: about 300,000 compounds; about 3,300 (1.1%) were called active. Another 6% or so got no clear call; they are omitted. Shown is part of a subset that was picked to be rich in actives.
Your answer is read as %, so omit the unit and give the number.

Given the molecule Cc1ccc2nc(N3CCN(C(=O)c4ccco4)CC3)sc2c1 , write its reported inhibition.
-2.41

Write down inhibition measured for item COc1ccc(NC(=O)CN(C)C(=O)c2cc(-c3ccc(C)o3)nc3ccccc23)cc1
3.47

Check the records and state inhibition for O=C(COC(=O)c1cnccn1)Nc1ccc(Cl)cc1C(F)(F)F
1.07

Give inhibition for the following molecule: O=C1N[C@@H](Cc2ccccc2)C(=O)N2[C@@H]3N(S(=O)(=O)c4ccc(F)cc4)c4ccccc4[C@]3(Br)C[C@@H]12
5.5

Give recorded inhibition. Cc1ccc(NC(=O)COc2ccc(/C=C3/NC(=O)NC3=O)cc2)cc1
-1.54

Hello, please tell me recorded inhibition for this one: Cc1ccc(C(=O)NNC(=O)c2ccncc2)cc1S(=O)(=O)N1CCCCC1
-4.29

Using known records, supply inhibition for COc1ccc(-n2nnnc2CNC(=O)c2ccc3ccccc3c2)cc1
3.81

Identify the reported inhibition for the following entry. Cc1ccc(-n2c(SCC(=O)N3CCC(C(=O)O)CC3)nc3ccccc3c2=O)cc1C
-0.912

Tell me its inhibition given Cc1cccc(Nc2nc(NCCO)nc(N3CCCC3)n2)c1 as the entry.
-0.666

Hello, please tell me recorded inhibition for this one: O=C(Nc1ccc(OCC(=O)N2CCOCC2)cc1)c1cc(F)c(F)cc1Cl
3.93
